Biological target: Shiga toxin 2 (Escherichia coli O157:H7) (UniProt P09385+P09386)
Assay: E. coli 0.157:H7 Shiga Toxin SOP - stx2 screening assay
Type: functional
Set-up: scale not given: direction of the effect not stated beside the values
Details: 30 µM
Friendly reminder: Percent Effect below -10% is true (1), at or above is false (0).

As a guide, the following entries are already answered.
>>> class_label("O=C1CC(c2ccccc2)c2c(n3ccsc3nc2=O)N1 (stereo unspecified)")
"true (1)"
>>> class_label("O=C([C@@H]1C[C@H]2[C@H](CCN2Cc2nccs2)O1)N1CCOCC1")
"true (1)"
>>> class_label("CN(C)C(=O)Cc1nc(CN2CCn3c(nnc3C3CC3)C2)cs1")
"false (0)"
>>> class_label("Cc1cc(CC(=O)NCc2ccnc(OCC(F)(F)F)c2)no1")
"false (0)"
>>> class_label("Cn1nc(C2CCCN(Cc3ccsc3)C2)c2nccnc21 (stereo unspecified)")
"true (1)"

Threshold test, Percent Effect < -10%: CNC(=O)C1CCN(C(=O)c2ccn(-c3ccc(F)cc3)n2)CC1 false (0)

Threshold test, Percent Effect < -10%: Cc1noc2ncc(C(=O)N3CCCC3c3ccncc3)cc12 (stereo unspecified) true (1)

Threshold test, Percent Effect < -10%: Cn1cc(CCNC(=O)NC2CCS(=O)(=O)C2)cn1 (stereo unspecified) false (0)

Threshold test, Percent Effect < -10%: CCc1c(C)nn(CCNC(=O)C2CCCN(C(=O)N(C)C)C2)c1C (stereo unspecified) false (0)

Threshold test, Percent Effect < -10%: COc1ccc(OC)c(C2CCN(Cc3nc(C)n4ccccc34)C2)c1 (stereo unspecified) false (0)

Threshold test, Percent Effect < -10%: CC1CCN(S(=O)(=O)NCCCn2cncn2)CC1 false (0)

These measurements were taken from ChEMBL document CHEMBL3988442.
